Taken from ChEMBL document CHEMBL1142180.

System: Streptococcus suis
Test: Antibacterial activity against Streptococcus suis BB1016 isolate after 24 hrs
Type: functional
Entries and their MIC values follow.
The figure you give is taken to be in µg/mL; do not add the unit.

Requested read-out: MIC. Entry: CCN1CCN(c2cc3c(cc2F)c(=O)c(C(=O)O)cn3C2CC2)CC1 [ENROFLOXACIN] 8

Requested read-out: MIC. Entry: O=C(O)c1cn(C2CC2)c2cc(N3CCNCC3)c(F)cc2c1=O [CIPROFLOXACIN] 32

Requested read-out: MIC. Entry: C[C@H]1COc2c(N3CCN(C)CC3)c(F)cc3c(=O)c(C(=O)O)cn1c23.C[C@H]1COc2c(N3CCN(C)CC3)c(F)cc3c(=O)c(C(=O)O)cn1c23.O [LEVOFLOXACIN] 32

---

Entries and their MIC values follow.
Test system: Streptococcus suis
Assay: Antibacterial activity against Streptococcus suis BB1012 isolate after 24 hrs
Format: functional
The figure you give is taken to be in µg/mL; do not add the unit.

The following compounds have reported results that may help.
- compound: "CCN1CCN(c2cc3c(cc2F)c(=O)c(C(=O)O)cn3C2CC2)CC1 [ENROFLOXACIN]"
  observed-property: "MIC"
  scale-unit: "µg/mL"
  measurement: 8
- compound: "C[C@H]1COc2c(N3CCN(C)CC3)c(F)cc3c(=O)c(C(=O)O)cn1c23.C[C@H]1COc2c(N3CCN(C)CC3)c(F)cc3c(=O)c(C(=O)O)cn1c23.O [LEVOFLOXACIN]"
  observed-property: "MIC"
  scale-unit: "µg/mL"
  measurement: 16

Value wanted: MIC (Streptococcus suis) of entry O=C(O)c1cn(C2CC2)c2cc(N3CCNCC3)c(F)cc2c1=O [CIPROFLOXACIN] 32

---

Test system: Streptococcus suis
Assay: Antibacterial activity against Streptococcus suis BB1002 isolate after 24 hrs
Type: functional
observed-property: MIC (µg/mL)
The figure you give is taken to be in µg/mL; do not add the unit.

The following molecules have reported results that may help.
- query-smiles: "O=C(O)c1cn(C2CC2)c2cc(N3CCNCC3)c(F)cc2c1=O"
  scale-unit: "µg/mL"
  MIC: 0.5
- query-smiles: "C[C@H]1COc2c(N3CCN(C)CC3)c(F)cc3c(=O)c(C(=O)O)cn1c23.C[C@H]1COc2c(N3CCN(C)CC3)c(F)cc3c(=O)c(C(=O)O)cn1c23.O"
  scale-unit: "µg/mL"
  MIC: 1
- query-smiles: "CCN1CCN(c2cc3c(cc2F)c(=O)c(C(=O)O)cn3C2CC2)CC1"
  scale-unit: "µg/mL"
  MIC: 0.5

Proceed to the following item.
Requested read-out: MIC. Entry: `CCn1cc(C(=O)O)c(=O)c2cc(F)c(N3CCNCC3)cc21` 2

---

Tested on: Streptococcus suis
Experiment: Antibacterial activity against Streptococcus suis BB1011 isolate after 24 hrs
Assay type: functional
observed-property: MIC (µg/mL)
The figure you give is taken to be in µg/mL; do not add the unit.

The following compounds have reported results that may help.
- compound: "CCn1cc(C(=O)O)c(=O)c2cc(F)c(N3CCNCC3)cc21 [NORFLOXACIN]"
  target-under-test: "Streptococcus suis"
  MIC / µg/mL: 32
- compound: "CCN1CCN(c2cc3c(cc2F)c(=O)c(C(=O)O)cn3C2CC2)CC1 [ENROFLOXACIN]"
  target-under-test: "Streptococcus suis"
  MIC / µg/mL: 16
- compound: "C[C@H]1COc2c(N3CCN(C)CC3)c(F)cc3c(=O)c(C(=O)O)cn1c23.C[C@H]1COc2c(N3CCN(C)CC3)c(F)cc3c(=O)c(C(=O)O)cn1c23.O [LEVOFLOXACIN]"
  target-under-test: "Streptococcus suis"
  MIC / µg/mL: 16

Proceed to the following item.
Requested read-out: MIC. Entry: O=C(O)c1cn(C2CC2)c2cc(N3CCNCC3)c(F)cc2c1=O [CIPROFLOXACIN] 16
